tgt: PI3K β (p110β/p85α) (Homo sapiens, UniProt P42338)
Construct: purchased Upstate / Millipore Corporation
Sequence (P42338 whole entry): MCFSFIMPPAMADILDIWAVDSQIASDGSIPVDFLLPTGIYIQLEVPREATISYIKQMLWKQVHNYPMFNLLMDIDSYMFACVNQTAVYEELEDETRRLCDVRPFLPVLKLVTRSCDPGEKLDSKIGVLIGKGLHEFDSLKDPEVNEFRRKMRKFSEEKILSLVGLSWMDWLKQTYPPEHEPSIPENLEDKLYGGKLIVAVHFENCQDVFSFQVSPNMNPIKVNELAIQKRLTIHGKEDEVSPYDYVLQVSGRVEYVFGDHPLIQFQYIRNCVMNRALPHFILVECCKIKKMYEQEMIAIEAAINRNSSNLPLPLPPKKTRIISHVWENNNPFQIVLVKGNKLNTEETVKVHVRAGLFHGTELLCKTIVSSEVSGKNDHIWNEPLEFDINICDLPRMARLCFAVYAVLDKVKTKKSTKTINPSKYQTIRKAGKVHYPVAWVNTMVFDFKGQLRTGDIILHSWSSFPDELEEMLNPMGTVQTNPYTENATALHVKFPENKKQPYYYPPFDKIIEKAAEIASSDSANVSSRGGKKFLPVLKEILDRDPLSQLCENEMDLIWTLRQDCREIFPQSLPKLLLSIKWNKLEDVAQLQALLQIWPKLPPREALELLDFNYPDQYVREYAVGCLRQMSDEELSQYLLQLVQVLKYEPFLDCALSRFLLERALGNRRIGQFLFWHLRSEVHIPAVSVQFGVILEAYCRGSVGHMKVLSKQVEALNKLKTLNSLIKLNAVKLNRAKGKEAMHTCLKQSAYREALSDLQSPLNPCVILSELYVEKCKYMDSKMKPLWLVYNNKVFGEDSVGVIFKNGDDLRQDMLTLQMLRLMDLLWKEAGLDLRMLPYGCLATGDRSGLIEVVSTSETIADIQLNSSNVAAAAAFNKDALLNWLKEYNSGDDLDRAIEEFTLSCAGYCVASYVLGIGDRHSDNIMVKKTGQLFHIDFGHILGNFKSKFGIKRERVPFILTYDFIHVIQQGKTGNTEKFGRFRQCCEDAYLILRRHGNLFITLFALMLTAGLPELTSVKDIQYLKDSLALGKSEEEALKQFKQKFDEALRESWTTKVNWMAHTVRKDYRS
Sequence (P27986 whole entry partner): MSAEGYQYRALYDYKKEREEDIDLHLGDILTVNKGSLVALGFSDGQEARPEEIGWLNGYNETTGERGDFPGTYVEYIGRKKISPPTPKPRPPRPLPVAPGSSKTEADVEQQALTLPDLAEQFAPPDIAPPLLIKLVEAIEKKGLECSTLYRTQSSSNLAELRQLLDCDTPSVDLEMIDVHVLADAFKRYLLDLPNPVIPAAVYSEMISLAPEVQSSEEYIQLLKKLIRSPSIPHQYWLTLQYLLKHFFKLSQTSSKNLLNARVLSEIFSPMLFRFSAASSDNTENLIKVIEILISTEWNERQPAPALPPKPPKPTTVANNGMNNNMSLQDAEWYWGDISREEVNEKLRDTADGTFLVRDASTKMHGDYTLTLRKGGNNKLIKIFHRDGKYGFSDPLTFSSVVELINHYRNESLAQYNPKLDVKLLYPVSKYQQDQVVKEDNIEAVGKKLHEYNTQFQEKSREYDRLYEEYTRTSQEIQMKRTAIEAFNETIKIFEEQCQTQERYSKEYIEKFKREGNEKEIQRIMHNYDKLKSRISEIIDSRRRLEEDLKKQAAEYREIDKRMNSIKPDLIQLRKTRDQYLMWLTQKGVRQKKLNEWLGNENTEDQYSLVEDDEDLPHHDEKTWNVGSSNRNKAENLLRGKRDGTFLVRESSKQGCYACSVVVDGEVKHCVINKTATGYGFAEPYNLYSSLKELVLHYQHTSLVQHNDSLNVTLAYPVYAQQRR
test name: PI 3-Kinase (human) HTRF assay, PI3K β
Assay type: biochemical
condition info: read-out: PI3K β IC50
assay endpoint: IC50

Tested on PI3K β (p110β/p85α) (Homo sapiens, UniProt P42338): Nc1noc2ccc(-c3ccc4nccc(-c5ccncc5)c4c3)cc12 [Compound 18] . Observed IC50: > 10 µM

Tested on PI3K β (p110β/p85α) (Homo sapiens, UniProt P42338): NC(=O)[C@H]1CCCN1C(=O)C1CN(c2cnc3ccc(-c4ccc5oc(N)nc5c4)cc3n2)C1 [Compound 284] . Observed IC50: < 10 µM

Tested on PI3K β (p110β/p85α) (Homo sapiens, UniProt P42338): CS(=O)(=O)Nc1cccc(-c2ccc3ncc(C(=O)N4CCOCC4)n3c2)c1 [Compound 443] . Observed IC50: > 10 µM

Tested on PI3K β (p110β/p85α) (Homo sapiens, UniProt P42338): Nc1nc2cc(-c3ccc4ncc(C(=O)N5CC[C@@H](N6CCOCC6)C5)n4c3)ccc2o1 [Compound 466] . Observed IC50: < 10 µM

Tested on PI3K β (p110β/p85α) (Homo sapiens, UniProt P42338): O=C(c1cnc2ccc(-c3ccc(Cl)c(NS(=O)(=O)c4ccccc4)c3)cn12)N1CCOCC1 [Compound 459] . Observed IC50: > 10 µM

Tested on PI3K β (p110β/p85α) (Homo sapiens, UniProt P42338): Nc1nc2cc(-c3ccc4ncc(C(=O)N5CC5)n4c3)ccc2o1 [Compound 340] . Observed IC50: > 10 µM

Tested on PI3K β (p110β/p85α) (Homo sapiens, UniProt P42338): CCN(CC)CCNc1cnc2ccc(-c3ccc4oc(N)nc4c3)cc2n1 [Compound 218] . Observed IC50: < 1 µM

Tested on PI3K β (p110β/p85α) (Homo sapiens, UniProt P42338): Nc1nc2cc(-c3ccc4nnc(-c5ccncc5)n4c3)ccc2o1 [Compound 229] . Observed IC50: < 1 µM

###

tgt: PI3K γ (p110γ) (Homo sapiens)
Construct: purchased Upstate / Millipore Corporation
Sequence (P48736 whole entry): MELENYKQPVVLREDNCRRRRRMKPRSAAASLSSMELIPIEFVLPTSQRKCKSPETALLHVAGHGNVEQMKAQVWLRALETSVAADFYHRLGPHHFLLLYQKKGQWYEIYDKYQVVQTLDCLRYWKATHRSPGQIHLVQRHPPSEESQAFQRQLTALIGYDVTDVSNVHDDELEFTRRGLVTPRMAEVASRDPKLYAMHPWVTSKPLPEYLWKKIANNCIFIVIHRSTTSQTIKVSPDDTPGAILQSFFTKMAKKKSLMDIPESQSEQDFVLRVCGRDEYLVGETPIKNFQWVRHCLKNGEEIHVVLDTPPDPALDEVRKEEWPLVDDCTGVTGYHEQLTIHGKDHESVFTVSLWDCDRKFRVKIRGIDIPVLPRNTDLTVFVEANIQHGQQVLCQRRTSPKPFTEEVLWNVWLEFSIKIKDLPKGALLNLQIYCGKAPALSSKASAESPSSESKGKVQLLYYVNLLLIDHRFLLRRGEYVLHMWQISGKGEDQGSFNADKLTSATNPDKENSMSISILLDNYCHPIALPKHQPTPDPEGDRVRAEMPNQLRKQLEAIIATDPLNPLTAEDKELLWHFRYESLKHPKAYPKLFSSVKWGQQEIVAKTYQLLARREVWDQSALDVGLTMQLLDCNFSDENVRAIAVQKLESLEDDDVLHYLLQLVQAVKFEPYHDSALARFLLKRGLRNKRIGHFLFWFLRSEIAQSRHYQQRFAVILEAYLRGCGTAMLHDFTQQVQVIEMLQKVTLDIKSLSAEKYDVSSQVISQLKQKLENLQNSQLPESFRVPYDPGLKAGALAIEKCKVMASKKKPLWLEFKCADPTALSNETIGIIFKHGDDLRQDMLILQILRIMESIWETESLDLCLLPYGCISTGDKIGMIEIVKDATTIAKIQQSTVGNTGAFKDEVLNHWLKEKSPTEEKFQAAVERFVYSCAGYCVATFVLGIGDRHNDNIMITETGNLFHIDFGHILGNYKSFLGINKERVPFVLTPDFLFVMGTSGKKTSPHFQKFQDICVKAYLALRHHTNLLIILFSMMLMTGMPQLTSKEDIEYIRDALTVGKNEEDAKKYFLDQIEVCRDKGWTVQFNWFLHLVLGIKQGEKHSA
test name: PI 3-Kinase (human) HTRF assay, PI3K γ
Type: biochemical
condition info: read-out: PI3K γ IC50
assay endpoint: IC50

Tested on PI3K γ (p110γ) (Homo sapiens): Nc1nc2cc(-c3cc(F)c4oc(N)nc4c3)ccc2o1 [Compound 432] . Observed IC50: < 100 nM

Tested on PI3K γ (p110γ) (Homo sapiens): CCN(CC)CCCNc1cnc2ccc(-c3ccc4oc(N)nc4c3)cc2n1 [Compound 220] . Observed IC50: < 1000 nM

Tested on PI3K γ (p110γ) (Homo sapiens): C[C@@H]1COCCN1C(=O)c1cnc2ccc(-c3ccc4oc(N)nc4c3)cn12 [Compound 495] . Observed IC50: < 1000 nM

Tested on PI3K γ (p110γ) (Homo sapiens): Cc1ncc(-c2ccc3ncc(C(=O)N4C5CCC4COC5)n3c2)c2cn[nH]c12 [Compound 538] . Observed IC50: > 10000 nM

Tested on PI3K γ (p110γ) (Homo sapiens): O=C(c1cnc2ccc(-c3cnc4[nH]ncc4c3)cn12)N1CCOCC1 [Compound 492] . Observed IC50: < 10000 nM

###

Give IC50 for every item shown.
tgt: PI3K β (p110β/p85α) (Homo sapiens)
Construct: purchased Upstate / Millipore Corporation
test name: PI 3-Kinase (human) HTRF assay, PI3K β
Type: biochemical
condition info: read-out: PI3K β IC50

// field: IC50; key: Nc1nc2cc(-c3ccc4[nH]nc(N)c4c3)ccc2o1 ; value = > 10 µM

// field: IC50; key: Cc1ccn(C2CCN(c3cnc4ccc(-c5ccc6oc(N)nc6c5)cc4n3)CC2)n1 ; value = > 10 µM

// field: IC50; key: CN1CCN(C2CCN(c3cnc4ccc(-c5ccc6oc(N)nc6c5)cc4n3)CC2)CC1 ; value = < 1 µM

// field: IC50; key: CNC(=O)CN1CCN(c2cnc3ccc(-c4ccc5oc(N)nc5c4)cc3n2)CC1 ; value = < 1 µM

// field: IC50; key: Nc1nc2cc(-c3ccc4ncc(C(=O)N5CC[C@H](N6CCOCC6)C5)n4c3)ccc2o1 ; value = > 10 µM

// field: IC50; key: Nc1nc2cc(-c3ccn4ncc(-c5ccncc5)c4c3)ccc2o1 ; value = < 0.1 µM

// field: IC50; key: Nc1nc2cc(-c3ccc4ncc(N5CC(N6CCS(=O)(=O)CC6)C5)nc4c3)ccc2o1 ; value = < 10 µM

// field: IC50; key: Nc1nc2ccc(-c3ccc4ncc(C(=O)N5CCOCC5)n4c3)cc2o1 ; value = < 1 µM

###

Give IC50 for every item shown.
tgt: PI3K δ (Homo sapiens)
Construct: purchased Upstate / Millipore Corporation
Sequence (O00329 whole entry): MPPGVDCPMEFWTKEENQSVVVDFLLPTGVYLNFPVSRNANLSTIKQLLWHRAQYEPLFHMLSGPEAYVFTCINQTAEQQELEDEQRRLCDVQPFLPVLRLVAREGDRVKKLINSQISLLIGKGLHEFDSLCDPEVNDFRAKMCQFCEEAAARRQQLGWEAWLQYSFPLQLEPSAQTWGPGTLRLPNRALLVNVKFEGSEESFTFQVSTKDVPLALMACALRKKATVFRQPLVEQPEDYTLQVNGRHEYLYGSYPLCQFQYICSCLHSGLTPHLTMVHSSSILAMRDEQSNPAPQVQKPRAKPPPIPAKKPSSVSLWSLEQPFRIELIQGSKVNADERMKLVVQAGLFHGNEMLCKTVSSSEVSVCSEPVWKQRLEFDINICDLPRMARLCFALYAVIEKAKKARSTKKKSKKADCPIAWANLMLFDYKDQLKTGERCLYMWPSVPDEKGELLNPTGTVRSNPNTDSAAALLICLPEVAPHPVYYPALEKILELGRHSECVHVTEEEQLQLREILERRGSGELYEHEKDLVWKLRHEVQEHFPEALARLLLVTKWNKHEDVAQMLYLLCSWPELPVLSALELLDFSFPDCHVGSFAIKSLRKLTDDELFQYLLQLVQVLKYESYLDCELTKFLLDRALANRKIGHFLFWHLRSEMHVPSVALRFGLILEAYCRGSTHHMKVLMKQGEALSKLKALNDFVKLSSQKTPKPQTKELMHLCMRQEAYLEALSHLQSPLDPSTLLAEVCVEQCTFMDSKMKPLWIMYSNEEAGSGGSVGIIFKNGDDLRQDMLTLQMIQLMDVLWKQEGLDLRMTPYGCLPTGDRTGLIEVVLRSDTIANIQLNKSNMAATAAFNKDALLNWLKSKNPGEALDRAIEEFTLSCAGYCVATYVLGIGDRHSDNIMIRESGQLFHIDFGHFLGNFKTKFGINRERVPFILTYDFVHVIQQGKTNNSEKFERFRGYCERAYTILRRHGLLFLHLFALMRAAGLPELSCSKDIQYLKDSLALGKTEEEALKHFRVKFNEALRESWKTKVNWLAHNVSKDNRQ
Sequence (P27986 whole entry partner): as the sequence (P27986 whole entry partner) above
test name: PI 3-Kinase (human) HTRF assay, PI3K δ
Type: biochemical
condition info: read-out: PI3K δ IC50

// field: IC50; key: C[C@H]1CN(C2CN(C(=O)c3cnc4ccc(-c5ccc6oc(N)nc6c5)cn34)C2)CCN1C ; value = < 1 µM

// field: IC50; key: Nc1n[nH]c2c(-c3ccc4ncc(C(=O)N5CCOCC5)n4c3)cccc12 ; value = > 10 µM

// field: IC50; key: Nc1nc2cc(-c3ccc4nccc(-c5ccncc5)c4c3)ccc2s1 ; value = < 0.1 µM

// field: IC50; key: Nc1nc2cc(-c3ccc4ncc(N5CC(N6CCOCC6)C5)nc4c3)c(F)cc2o1 ; value = < 10 µM

###

tgt: PI3K δ (Homo sapiens)
Construct: purchased Upstate / Millipore Corporation
test name: PI 3-Kinase (human) HTRF assay, PI3K δ
Assay type: biochemical
condition info: read-out: PI3K δ IC50
pIC50: −log10 of the molar value.
assay endpoint: pIC50

Tested on PI3K δ (Homo sapiens): Nc1nc2ccc(-c3ccc4ncc(C(=O)N5CCOCC5)n4c3)cc2s1 [Compound 125] . Observed pIC50: > 5.00

Tested on PI3K δ (Homo sapiens): Nc1nc2cc(-c3ccc4ncc(C(=O)N5CCOCC5)nc4c3)ccc2o1 [Compound 158] . Observed pIC50: < 5.00

Tested on PI3K δ (Homo sapiens): Nc1ncc(-c2cnc3ccc(-c4ccc5oc(N)nc5c4)cc3n2)cn1 [Compound 210] . Observed pIC50: < 5.00

Tested on PI3K δ (Homo sapiens): C[C@@H]1CN(c2cnc3ccc(-c4ccc5oc(N)nc5c4)cc3n2)C[C@H](C)O1 [Compound 132] . Observed pIC50: < 5.00

###

Give pIC50 for every item shown.
tgt: PI3K α (p110α/p85α) (Homo sapiens, UniProt P42336)
Construct: purchased Upstate / Millipore Corporation
Sequence (P42336 whole entry): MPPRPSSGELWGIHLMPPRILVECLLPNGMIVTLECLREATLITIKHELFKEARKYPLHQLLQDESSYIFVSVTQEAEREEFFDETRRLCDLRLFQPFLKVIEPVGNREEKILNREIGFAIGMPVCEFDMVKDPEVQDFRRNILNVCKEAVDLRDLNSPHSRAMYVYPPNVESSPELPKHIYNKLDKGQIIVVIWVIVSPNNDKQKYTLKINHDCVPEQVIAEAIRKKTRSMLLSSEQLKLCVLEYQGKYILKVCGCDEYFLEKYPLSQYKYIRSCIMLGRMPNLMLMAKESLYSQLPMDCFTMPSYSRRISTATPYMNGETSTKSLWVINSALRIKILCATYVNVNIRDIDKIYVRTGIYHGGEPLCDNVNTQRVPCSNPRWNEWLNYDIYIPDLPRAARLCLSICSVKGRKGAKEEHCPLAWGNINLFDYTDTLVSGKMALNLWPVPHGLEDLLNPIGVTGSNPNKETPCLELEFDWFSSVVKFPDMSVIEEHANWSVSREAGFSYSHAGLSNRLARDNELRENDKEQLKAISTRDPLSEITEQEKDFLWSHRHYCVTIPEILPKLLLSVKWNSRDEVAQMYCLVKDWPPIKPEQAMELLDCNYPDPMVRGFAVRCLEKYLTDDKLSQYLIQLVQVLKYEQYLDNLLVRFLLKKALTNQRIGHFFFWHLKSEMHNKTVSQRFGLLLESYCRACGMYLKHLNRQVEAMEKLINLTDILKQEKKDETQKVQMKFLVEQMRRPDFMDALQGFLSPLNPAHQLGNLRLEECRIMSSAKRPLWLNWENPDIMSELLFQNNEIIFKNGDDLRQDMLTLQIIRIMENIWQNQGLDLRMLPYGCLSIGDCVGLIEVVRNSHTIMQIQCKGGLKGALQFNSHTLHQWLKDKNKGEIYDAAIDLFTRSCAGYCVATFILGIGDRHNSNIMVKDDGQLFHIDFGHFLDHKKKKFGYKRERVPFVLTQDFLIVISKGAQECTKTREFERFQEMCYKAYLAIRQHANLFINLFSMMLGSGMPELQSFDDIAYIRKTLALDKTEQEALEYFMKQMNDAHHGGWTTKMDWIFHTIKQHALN
Sequence (P27986 whole entry partner): as the sequence (P27986 whole entry partner) above
test name: PI 3-Kinase (human) HTRF assay, PI3K α
Format: biochemical
condition info: read-out: PI3K α IC50
pIC50: −log10 of the molar value.

// field: pIC50; key: Nc1nc2cc(-c3ccc4ncn(CCCN5CCOCC5)c(=O)c4c3)ccc2o1 ; value = > 6.00

// field: pIC50; key: CN1CCN(c2cc(-c3ccnc4ccc(-c5ccc6oc(N)nc6c5)cc34)ccn2)CC1 ; value = > 7.00

// field: pIC50; key: CC(C)N1CCC(n2cnc3ccc(-c4cnc(Cl)c(NS(=O)(=O)c5ccccc5)c4)cc3c2=O)CC1 ; value = > 7.00

// field: pIC50; key: C[C@@H]1CN(C2CN(c3cnc4ccc(-c5ccc6oc(N)nc6c5)cc4n3)C2)CCN1 ; value = > 7.00

// field: pIC50; key: CNc1nc2cc(-c3ccc4ncc(C(=O)N5CCOCC5)n4c3)ccc2o1 ; value = > 5.00

// field: pIC50; key: Nc1nc2ccc(-c3ccc4nc(N)sc4c3)cc2o1 ; value = > 6.00

// field: pIC50; key: COc1nc(-c2ccc3oc(N)nc3c2)cnc1N ; value = > 6.00

// field: pIC50; key: Nc1nc2cc(-c3ccc4ncc(-c5ccnc(N6CCOCC6)c5)n4c3)ccc2o1 ; value = > 7.00

###

tgt: PI3K β (p110β/p85α) (Homo sapiens, UniProt P42338)
Construct: purchased Upstate / Millipore Corporation
test name: PI 3-Kinase (human) HTRF assay, PI3K β
Format: biochemical
condition info: read-out: PI3K β IC50
Give IC50 for every item shown.

// field: IC50; key: Nc1nc2cc(-c3ccc4ncc(-c5cccnc5)nc4c3)ccc2o1 [Compound 76] ; value = > 10 µM

// field: IC50; key: C[C@@H](N)C(=O)N1CCN(c2cnc3ccc(-c4ccc5oc(N)nc5c4)cc3n2)CC1 [Compound 208] ; value = < 1 µM

// field: IC50; key: Nc1nc2cc(-c3ccc4ncc(N5CC(N6CCC(O)CC6)C5)nc4c3)ccc2o1 [Compound 341] ; value = > 10 µM

// field: IC50; key: Nc1nc2cc(-c3ccc4ncc(N5CCN(CCO)CC5)nc4c3)ccc2o1 [Compound 100] ; value = < 0.1 µM

// field: IC50; key: CC(C)N1CCN(C(=O)C2CN(c3cnc4ccc(-c5ccc6oc(N)nc6c5)cc4n3)C2)CC1 [Compound 285] ; value = < 10 µM

// field: IC50; key: CC(=O)Nc1nc2ccc(-c3ccc4nc(N)oc4c3)cc2s1 [Compound 242] ; value = < 0.1 µM

// field: IC50; key: Nc1nc2cc(-c3ccc4ncc(N5CCNCC5=O)nc4c3)ccc2o1 [Compound 389] ; value = > 10 µM

// field: IC50; key: Nc1nc2cc(-c3ccc4ncc(N5CCN(C(=O)[C@@H]6CCCN6)CC5)nc4c3)ccc2o1 [Compound 121] ; value = < 0.1 µM

Source listed as patent US20150087627A1.
